Experiment: Drug level in New Zealand White rabbit eye aqueous humor at 25 ug/25 ul administered as intracameral injection measured after 15 mins
Format: ADME, tissue-based, Oryctolagus cuniculus
Conditions: topical or ocular, read-out: Drug uptake

test smiles | concentration at 0.25 h, ng/mL
C[C@@H](c1ncncc1F)[C@](O)(Cn1cncn1)c1ccc(F)cc1F | 25400

====

Assay: Half life in human eye administered as intracameral injection
Type: ADME, tissue-based
Conditions: eye, topical or ocular
experimental readout: half-life (h)

test smiles | quantitative readout
C[C@@H](c1ncncc1F)[C@](O)(Cn1cncn1)c1ccc(F)cc1F | 3.27

Value source: ChEMBL document CHEMBL1649194
